# Test system: 9His-cgLAAO1
# TEST_DESCRIPTION: coupled peroxidase/o-dianisidine assay, Hanes-Woolf
# Assay type: biochemical, Colletotrichum gloeosporioides
# ASSAY_CONDITIONS: 50 mM TEA/HCl pH 7.0, 30 °C
The label depends only on Km: Met if it is at least 1000 µM, Not met if it is smaller.

COMPOUND_STRUCTURE | LABEL
COC(=O)[C@@H](N)CC(C)C | Met
CSCC[C@H](N)C(=O)O | Met
NC(=O)CC[C@H](N)C(=O)O | Not met
N[C@@H](Cc1ccccc1)C(=O)O | Not met
CC(C)C[C@H](N)C(=O)O | Met
